- experimental.system: hROMK (human Kir1.1) (Homo sapiens (Human), UniProt P48048)
- Sequence (P48048 whole entry): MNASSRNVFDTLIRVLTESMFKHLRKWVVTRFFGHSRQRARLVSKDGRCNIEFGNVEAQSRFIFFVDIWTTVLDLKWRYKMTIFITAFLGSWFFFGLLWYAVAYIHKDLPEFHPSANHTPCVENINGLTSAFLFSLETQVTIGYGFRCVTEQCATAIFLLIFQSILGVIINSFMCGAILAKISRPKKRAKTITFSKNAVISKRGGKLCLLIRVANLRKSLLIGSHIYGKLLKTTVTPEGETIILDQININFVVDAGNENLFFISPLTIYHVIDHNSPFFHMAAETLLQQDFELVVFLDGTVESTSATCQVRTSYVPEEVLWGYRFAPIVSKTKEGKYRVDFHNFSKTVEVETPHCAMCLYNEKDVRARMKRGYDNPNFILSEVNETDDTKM
- test.protocol: Thallium Flux Assay (FluxOR, CHO T-Rex hROMK stable cell line)
- experimental.context: CHO T-Rex hROMK cells, 10-point concentration response curve; read-out: Human ROMK TH Flux IC50
Recorded measurements of IC50, one per entry

compound | IC50 [nM]
COc1cc(-n2cc(CNC[C@H](O)c3ccc4c(c3C)COC4=O)cn2)cc2c1oc(=O)n2C | 66
Cc1c(C(O)CN(C)Cc2cnc(-c3ccc4oc(=O)n(C)c4c3)nc2)ccc2c1COC2=O (stereo not drawn) | 290
Cc1c([C@@H](O)CNCc2cncc(-c3ccc4oc(=O)n(C)c4c3)c2)ccc2c1COC2=O | 120
CCN(Cc1ccc(-c2ccc3oc(=O)n(C)c3c2)nc1)C[C@H](O)c1ccc2c(c1C)COC2=O | 67
Cc1c(-c2cnn(CCNC[C@H](O)c3ccc4c(c3C)COC4=O)c2)ccc2c1COC2=O | 66
Cc1ncn(-c2ncc(CNC[C@H](O)c3ccc4c(c3C)COC4=O)cn2)c1C(F)F | 230
COc1cc(-n2cc(CNC[C@H](O)c3ccc4c(c3C)COC4=O)cn2)ncc1C#N | 2.4
Cc1c(C(O)CN(C)Cc2ccc(-n3ccc4cc(C#N)ccc43)cc2)ccc2c1COC2=O (single isomer, unassigned) [Example 30-II] | 1200
CCn1c(=O)oc2ccc(-n3cc(CNC[C@H](O)c4ccc5c(c4C)COC5=O)cn3)cc21 | 390
Cc1c(C(CO)NCCc2cccc(-c3ccc(C#N)c(F)c3)c2)ccc2c1COC2=O (single isomer, unassigned) [Example 15-II] | 1500
Cc1c([C@@H](O)CNC(C)(C)c2cnn(-c3ccc4oc(=O)n(C)c4c3)c2)ccc2c1COC2=O | 930
Cc1c([C@@H](O)CNCc2cnn(-c3cccc(N4CCOC4=O)c3)c2)ccc2c1COC2=O | 390
Cc1c([C@@H](O)CNCc2cnn(-c3ccc(C#N)cc3)c2)ccc2c1COC2=O | 24
Cc1cc(-n2cc(CNC[C@H](O)c3ccc4c(c3C)COC4=O)ccc2=O)ncc1C#N | 140
Cc1cc(-c2ccc(CN(C)CC(O)c3ccc4c(c3C)COC4=O)cc2)ncc1C#N (single isomer, unassigned) [Example 31-II] | 370

----------
- experimental.system: hROMK (human Kir1.1) (Homo sapiens (Human), UniProt P48048)
- test.protocol: Thallium Flux Assay (FluxOR, CHO T-Rex hROMK stable cell line)
- experimental.context: CHO T-Rex hROMK cells, 10-point concentration response curve; read-out: Human ROMK TH Flux IC50

molecule | experimental.system | IC50 [nM]
Cc1cn(-c2ncc(CNC[C@H](O)c3ccc4c(c3C)COC4=O)cc2F)cn1 (single isomer, unassigned) | hROMK (human Kir1.1) (Homo sapiens (Human), UniProt P48048) | 46
COc1cc(-n2cc(CNC[C@H](O)c3ccc4c(c3C)COC4=O)cn2)nc(C)c1C#N | hROMK (human Kir1.1) (Homo sapiens (Human), UniProt P48048) | 19
Cc1c(C(O)CNCc2ccc(-c3ccc4oc(=O)n(C)c4c3)nc2)ccc2c1COC2=O (single isomer, unassigned) | hROMK (human Kir1.1) (Homo sapiens (Human), UniProt P48048) | 160
Cc1c([C@@H](O)CNCc2cnn(-c3cccc(C#N)c3)c2)ccc2c1COC2=O | hROMK (human Kir1.1) (Homo sapiens (Human), UniProt P48048) | 77
Cc1nc(-n2cc(CNC[C@H](O)c3ccc4c(c3C)COC4=O)cn2)nc(C)c1C#N | hROMK (human Kir1.1) (Homo sapiens (Human), UniProt P48048) | 40

Every entry's value here was drawn from patent US10723723B2.
